Test system: clinical Salmonella isolates
protocolText: MIC, broth microdilution
Format: cell-based
experimentalContext: isolate 69 (Typhimurium, stool; resistant AMP); MHB, 5 × 10^5 CFU/mL, 37 °C, 18 h, duplicate
Ends that are not written are not given here.
assayEndpoint: MIC (µM)

FIRRIARLLRRIF-NH2 [Kn2-5R-NH2]
4
FIRRIARLLRRIF [Kn2-5R]
8
FIGAIARLLSKIF [BmKn-2, reference compound]
256
FFFIRRIARLLRRIF-NH2 [2F-Kn2-5R-NH2]
4

----------
Tested on: clinical Salmonella isolates
protocolText: MIC, broth microdilution
Type: cell-based
experimentalContext: isolate 107 (Typhimurium, stool; susceptible); MHB, 5 × 10^5 CFU/mL, 37 °C, 18 h, duplicate
Ends that are not written are not given here.
assayEndpoint: MIC

LLKLFFPFLETGE [Pug-1, reference compound]
> 256 µM
KLKLLLLLKLK-NH2 [KLK, reference compound]
> 256 µM
FIGAIARLLSKIF [BmKn-2, reference compound]
64 µM
FIRRIARLLRRIF [Kn2-5R]
8 µM
FPSFLVGR [Pug-4, reference compound]
> 256 µM
KLKLLLLLKL [KLK1, reference compound]
> 256 µM
FIRRIARLLRRIF-NH2 [Kn2-5R-NH2]
4 µM
FFFIRRIARLLRRIF-NH2 [2F-Kn2-5R-NH2]
4 µM
FIGAIARLLSK [BmKn-22, reference compound]
> 256 µM

----------
Test system: clinical Salmonella isolates
protocolText: MIC, broth microdilution
Format: cell-based
experimentalContext: isolate 61 (Enteritidis, blood; resistant AMP, TE, NA, SXT); MHB, 5 × 10^5 CFU/mL, 37 °C, 18 h, duplicate
Ends that are not written are not given here.
Listing of recorded MIC by entry.
assayEndpoint: MIC (µM)

FIGAIARLLSKIF [BmKn-2, reference compound]
256
FIRRIARLLRRIF [Kn2-5R]
8
FIRRIARLLRRIF-NH2 [Kn2-5R-NH2]
4
FFFIRRIARLLRRIF-NH2 [2F-Kn2-5R-NH2]
4
